- Test system: barnyardgrass (Echinochloa oryzicola Vasing.)
- protocol: Test Example 1: herbicidal effects, paddy-field pot test
- Type: in vivo
- recorded.conditions: chemical dosage 10 g/a; wettable powder applied 3 days after transplanting; judged after 25 days
- Method: A paddy soil was filled in 1/10,000 are pot, and seeds of barnyardgrass (Echinochloa oryzicola Vasing.), Scirpus joncoides and annual broad-leaved weeds (Lindernia spp., Rotala indica) which are awaken from dormancy were mixed at the surface layer of 1 cm. Also, tuber of Cyperus serotinus which is germinated was planted, and further seedlings of paddy-field rice at 2.2-leaf stage were transplanted, and they were grown under the flooded condition in a greenhouse. […]
Attribute: Herbicidal effects Barnyard grass

| smiles.data | Herbicidal effects Barnyard grass |
| --- | --- |
| Cc1cccc(Br)c1Oc1nnc(Cl)cc1O | 2 (Growth inhibition rate; 31 to 50%) |
| CS(=O)(=O)Oc1cc(Cl)nnc1Oc1ccccc1C1CC1 | 2 (Growth inhibition rate; 31 to 50%) |
| Cc1cccc(C(C)C)c1Oc1nnc(Cl)cc1O | 2 (Growth inhibition rate; 31 to 50%) |
| CC(C)c1cccc(C2CC2)c1Oc1nnc(Cl)cc1O | 0 (Growth inhibition rate; 0 to 10%) |
| CCCS(=O)(=O)Oc1cc(Cl)nnc1Oc1ccccc1C | 4 (Growth inhibition rate; 71 to 90%) |
| Oc1cc(Cl)nnc1Oc1c(Br)ccc2ccoc12 | 4 (Growth inhibition rate; 71 to 90%) |
| Cc1cc(C)c(Oc2nnc(Cl)cc2O)c(C2CC2)c1 | 0 (Growth inhibition rate; 0 to 10%) |
| Cc1ccccc1Oc1nnc(Cl)cc1OC(=O)OCC(Cl)(Cl)Cl | 3 (Growth inhibition rate; 51 to 70%) |
| CCOc1cccc(C2CC2)c1Oc1nnc(Cl)cc1O | 0 (Growth inhibition rate; 0 to 10%) |
| Cc1cc(C)c(Br)c(Oc2nnc(Cl)cc2O)c1 | 0 (Growth inhibition rate; 0 to 10%) |

----------
Attribute: melting point
property.measured: melting point

| molecule | observed.value |
| --- | --- |
| Oc1cc(Cl)nnc1Oc1ccccc1OC(F)F [Compound No. 390] | 210 to 212 °C |
| Oc1cc(Cl)nnc1Oc1ccccc1C1CC1 [Compound No. 139] | 229 to 231 °C |
| N#CC1(c2ccccc2Oc2nnc(Cl)cc2O)CCC1 [Compound No. 287] | 213 to 215 °C |
| CC(C)c1ccc(Oc2nnc(Cl)cc2O)cc1 [Compound No. 432] | 233 to 235 °C |
| C/C=C/c1cccc(/C=C/C)c1Oc1nnc(Cl)cc1O [Compound No. 979] | 163 to 164 °C |

----------
Attribute: Herbicidal effects Cyperus serotinus
- Tested on: Cyperus serotinus
- protocol: Test Example 1: herbicidal effects, paddy-field pot test
- Format: in vivo
- recorded.conditions: chemical dosage 10 g/a; wettable powder applied 3 days after transplanting; judged after 25 days

| smiles.data | subject.of.test | Herbicidal effects Cyperus serotinus |
| --- | --- | --- |
| Cc1cccc(Oc2nnc(Cl)cc2O)c1C1CC1 | Cyperus serotinus | 5 (Growth inhibition rate; 91 to 100%) |
| Cc1ccc(C2CC2)c(Oc2nnc(Cl)cc2O)c1C | Cyperus serotinus | 5 (Growth inhibition rate; 91 to 100%) |
| Cc1ccc(Oc2nnc(Cl)cc2O)c(C2CC2)c1 | Cyperus serotinus | 4 (Growth inhibition rate; 71 to 90%) |
| Oc1cc(Cl)nnc1Oc1c(C2CC2)ccc2c1CCC2 | Cyperus serotinus | 5 (Growth inhibition rate; 91 to 100%) |
| Cc1ccc(C)c(Oc2nnc(Cl)cc2O)c1Br | Cyperus serotinus | 5 (Growth inhibition rate; 91 to 100%) |
| Oc1cc(Cl)nnc1Oc1c(Cl)cccc1I | Cyperus serotinus | 5 (Growth inhibition rate; 91 to 100%) |
| COC(=O)Oc1cc(Cl)nnc1Oc1ccccc1C1CC1 | Cyperus serotinus | 5 (Growth inhibition rate; 91 to 100%) |
| Oc1cc(Cl)nnc1Oc1c(Br)ccc2c1CCC2 | Cyperus serotinus | 4 (Growth inhibition rate; 71 to 90%) |
| Oc1cc(Cl)nnc1Oc1c(Br)cccc1Br | Cyperus serotinus | 5 (Growth inhibition rate; 91 to 100%) |
| Oc1cc(Cl)nnc1Oc1cccc2occc12 | Cyperus serotinus | 5 (Growth inhibition rate; 91 to 100%) |
| Oc1cc(Cl)nnc1Oc1cccc2c1OCC2 | Cyperus serotinus | 5 (Growth inhibition rate; 91 to 100%) |

Ref: patent US7964531B2
